- Experimental system: PERK (Mus musculus, UniProt Q9Z2B5)
- Construct: Immortalized MEFs were pretreated for 30 min with increasing concentrations of GSK’157 and the indicated compounds and stimulated with tunicamycin; endogenous in cells
- Sequence (Q9Z2B5 29-1114): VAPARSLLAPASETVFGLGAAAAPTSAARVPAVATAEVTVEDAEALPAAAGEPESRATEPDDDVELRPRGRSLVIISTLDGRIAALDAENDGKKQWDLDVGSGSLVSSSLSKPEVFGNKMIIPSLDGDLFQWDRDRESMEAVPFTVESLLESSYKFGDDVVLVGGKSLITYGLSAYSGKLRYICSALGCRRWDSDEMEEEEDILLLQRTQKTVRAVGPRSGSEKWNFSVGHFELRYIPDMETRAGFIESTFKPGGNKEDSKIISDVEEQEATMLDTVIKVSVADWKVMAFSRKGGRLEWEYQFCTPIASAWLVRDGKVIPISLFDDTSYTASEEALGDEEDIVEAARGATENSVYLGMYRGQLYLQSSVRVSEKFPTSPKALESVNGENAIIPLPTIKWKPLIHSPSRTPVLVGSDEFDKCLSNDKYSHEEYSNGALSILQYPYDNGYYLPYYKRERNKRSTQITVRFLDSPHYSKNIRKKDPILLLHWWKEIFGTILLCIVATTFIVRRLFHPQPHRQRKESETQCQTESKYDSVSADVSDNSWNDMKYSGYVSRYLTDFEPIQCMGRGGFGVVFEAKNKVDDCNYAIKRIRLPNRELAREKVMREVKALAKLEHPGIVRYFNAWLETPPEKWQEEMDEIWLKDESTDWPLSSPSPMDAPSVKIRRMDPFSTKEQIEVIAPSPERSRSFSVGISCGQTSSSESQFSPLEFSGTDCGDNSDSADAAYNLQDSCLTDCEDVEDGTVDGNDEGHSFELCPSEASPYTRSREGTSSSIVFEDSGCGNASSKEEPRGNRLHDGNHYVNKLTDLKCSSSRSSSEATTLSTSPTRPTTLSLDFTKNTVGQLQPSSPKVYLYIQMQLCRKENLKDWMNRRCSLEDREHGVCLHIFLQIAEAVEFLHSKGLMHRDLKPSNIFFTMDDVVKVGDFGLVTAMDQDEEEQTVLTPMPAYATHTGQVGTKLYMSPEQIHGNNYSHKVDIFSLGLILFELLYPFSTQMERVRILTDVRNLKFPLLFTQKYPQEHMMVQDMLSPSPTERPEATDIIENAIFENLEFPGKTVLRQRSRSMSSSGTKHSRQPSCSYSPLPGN
- Protocol text: PERK autophosphorylation by Western blot in tunicamycin-stimulated immortalized MEFs
- Experimental context: immortalized MEFs, 30 min pretreatment, tunicamycin 1 μg/ml for 4 h; PERK autophosphorylation; read-out: PERK inhibition (IC50 estimated from a Western blot)
Measurement name: IC50

As a guide, the following entries are already answered.
• Cn1cc(-c2ccc3c(c2F)CCN3C(=O)Cc2ccc(Cc3ccccc3)cn2)c2c(N)ncnc21 = ≥ 5 µM
• COc1ccc(CC(=O)N2CCc3c2ccc(-c2cn(C)c4ncnc(N)c24)c3F)nc1 = ≥ 5 µM
• Cn1cc(-c2ccc3c(c2F)CCN3C(=O)Cc2ccc(Br)cc2)c2c(N)ncnc21 = 1 to 5 µM

Data request, read-out IC50, for Cn1cc(-c2ccc3c(c2F)CCN3C(=O)Cc2ccc(C(C)(C)C)cn2)c2c(N)ncnc21
> 5 µM
